Tested on: 519858-162-T-J1-PDC complex spheroid viability;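 further: spheroids exposed to compounds for 7 days; 100% = DMSO vehicle control viability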
Assay: Anticancer human tumor 519858-162-T-J1-PDC patient-derived colon adenocarcinoma cell line growth inhibition [GQUAD]
Details: second compound 3.16 µM; first compound 1 µM; stronger effect = lower value
Reported viability, T/C is given for each of the following molecules.

Some entries whose results are on file:
{"molecule": "Cc1cccc(N(C)C(=O)C2C(O)CCN2c2nc(C)cc(C(F)(F)F)c2C#N)c1 (stereo not given) + CN(C)c1ccc(Nc2c3ccc(NC(=O)CCN4CCCC4)cc3nc3cc(NC(=O)CCN4CCCC4)ccc23)cc1", "viability, T/C": "91.8%"}
{"molecule": "CC1COCCN1c1cc(C2(O)CC3CCC(C2)O3)c2cnn(-c3ccn[nH]3)c2n1 (stereo not given) + CN(C)c1ccc(Nc2c3ccc(NC(=O)CCN4CCCC4)cc3nc3cc(NC(=O)CCN4CCCC4)ccc23)cc1", "viability, T/C": "73.2%"}
{"molecule": "C#Cc1c(F)ccc2cc(O)cc(-c3ncc4c(N5CC6CCC(C5)N6)nc(OCC56CCCN5CC(F)C6)nc4c3F)c12 (stereo not given) + Cc1cnc(CNC(=O)c2c(=O)c3ccc(N4CCCN(C)CC4)nc3n3c2sc2ccccc23)cn1", "viability, T/C": "53.1%"}
{"molecule": "COc1ccc([C@@H](O)c2cc(-c3ncnc4cc(N5CCOCC5)ccc34)c(F)cc2Cl)nn1 + Cc1[nH]c2ccc(F)cc2c1-c1nc2c3cccnc3c3ncccc3c2[nH]1", "viability, T/C": "64.9%"}

Would you kindly look at the next entry?
stdin: Query (molecule): COc1cc(C2c3cc4c(cc3C(OC3OC5COC(C)OC5C(O)C3O)C3COC(=O)C23)OCO4)cc(OC)c1O (stereo not given) + Cc1[nH]c2ccc(F)cc2c1-c1nc2c3cccnc3c3ncccc3c2[nH]1 ; field requested: viability, T/C
stdout: 75%
